Listing of recorded inhibition at 2 µM by entry.
# tested_on: Smoothened (SMO) (Mus musculus, UniProt P56726)
# Construct: C3H10T1/2 cells (ATCC #CCL-226) were split and seeded; endogenous in cells; host or cells: C3H10T1/2 (ATCC #CCL-226)
# Sequence (P56726 33-793): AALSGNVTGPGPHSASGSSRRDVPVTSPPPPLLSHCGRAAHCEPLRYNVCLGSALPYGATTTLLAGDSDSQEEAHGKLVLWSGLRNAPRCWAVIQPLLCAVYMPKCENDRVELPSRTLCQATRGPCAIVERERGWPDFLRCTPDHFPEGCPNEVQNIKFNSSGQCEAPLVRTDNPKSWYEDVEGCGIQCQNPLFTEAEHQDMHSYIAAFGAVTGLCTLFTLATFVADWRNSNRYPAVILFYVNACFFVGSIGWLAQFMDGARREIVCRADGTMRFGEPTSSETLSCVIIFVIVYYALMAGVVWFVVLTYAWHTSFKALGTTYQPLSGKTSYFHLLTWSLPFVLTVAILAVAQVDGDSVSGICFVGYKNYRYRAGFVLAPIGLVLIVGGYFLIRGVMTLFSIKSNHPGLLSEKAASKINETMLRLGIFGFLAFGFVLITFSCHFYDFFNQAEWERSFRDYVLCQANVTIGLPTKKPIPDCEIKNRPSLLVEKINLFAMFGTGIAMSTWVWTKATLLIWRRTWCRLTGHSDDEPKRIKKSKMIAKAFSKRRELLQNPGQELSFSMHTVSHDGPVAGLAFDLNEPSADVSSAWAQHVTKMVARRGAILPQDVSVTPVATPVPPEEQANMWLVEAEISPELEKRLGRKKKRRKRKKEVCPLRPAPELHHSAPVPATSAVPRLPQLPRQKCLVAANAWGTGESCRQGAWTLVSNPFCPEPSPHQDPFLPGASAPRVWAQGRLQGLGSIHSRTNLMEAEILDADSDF
# experimental_protocol: Smoothened (SMO)/Sonic Hedgehog (SHh) Transient Transcriptional Activation Assay (Gli-luciferase reporter in C3H10T1/2 cells)
# Assay type: cell-based, murine
# condition_description: C3H 10T1/2, 2 μM compound; transfected C3H10T1/2 cells, recombinant human SHh 250 ng/mL, 20 hours, luciferase readout; read-out: SMO CELL % INHIBITION @ 2 μM
Where a name gives a salt, the structure may show the parent alone.
value_kind: inhibition at 2 µM (%)

INSERT INTO assay_data (molecule, value_kind, measure_unit, readout_number) VALUES
  ('COc1ccc(C(=O)N[C@@H]2CCN(C)[C@@H](c3nc4ccccc4[nH]3)C2)cc1F [Example 117, trifluoroacetate]', 'inhibition at 2 µM', '%', 65.4),
  ('COc1ccc2[nH]c([C@H]3C[C@H](NC(=O)Nc4ccc(C)nc4)CCN3C3CCC3)nc2c1', 'inhibition at 2 µM', '%', 107),
  ('COc1ccc2nc([C@@H]3C[C@H](NC(=O)Nc4ccc(Cl)c(C(F)(F)F)c4)CN3C)[nH]c2c1', 'inhibition at 2 µM', '%', 105),
  ('CN1CC[C@@H](NC(=O)Nc2ccc(C(F)(F)F)nc2)C[C@@H]1c1nc2ccccc2[nH]1 [Example 66, hydrochloride]', 'inhibition at 2 µM', '%', 103),
  ('CN(C)c1ccc2[nH]c([C@H]3C[C@H](NC(=O)c4ccc5c(c4)OCCO5)CCN3C)nc2c1 [Example 27, hydrochloride]', 'inhibition at 2 µM', '%', 108),
  ('CN1CC[C@@H](NC(=O)NCc2ccccc2)C[C@@H]1c1nc2ccccc2[nH]1 [Example 76, hydrochloride]', 'inhibition at 2 µM', '%', 100),
  ('CN1CC[C@@H](NC(=O)[C@@H]2COc3ccccc3O2)C[C@@H]1c1nc2ccccc2[nH]1 [Example 105, trifluoroacetate]', 'inhibition at 2 µM', '%', 97.8),
  ('CN1CC[C@@H](NC(=O)Nc2ccc(C#N)cn2)C[C@@H]1c1nc2ccccc2[nH]1 [Example 43, hydrochloride]', 'inhibition at 2 µM', '%', 106),
  ('N#Cc1ccc(NC(=O)N[C@@H]2CCN(C3CCC3)[C@@H](c3nc4ccccc4[nH]3)C2)cc1', 'inhibition at 2 µM', '%', 101),
  ('Cc1ccc(NC(=O)N[C@@H]2CCN(C)[C@@H](c3nc4ccc(F)cc4[nH]3)C2)cn1 [Example 132, hydrochloride]', 'inhibition at 2 µM', '%', 108),
  ('CN1CC[C@@H](NC(=O)c2cnn3ccccc23)C[C@@H]1c1nc2ccccc2[nH]1 [Example 115, trifluoroacetate]', 'inhibition at 2 µM', '%', 69.6),
  ('CN1CC[C@@H](NC(=O)Cn2cc3ccccc3n2)C[C@@H]1c1nc2ccccc2[nH]1 [Example 108, trifluoroacetate]', 'inhibition at 2 µM', '%', 86.4),
  ('COc1ccc2nc([C@H]3C[C@H](NC(=O)c4ccc5c(c4)OCCO5)CCN3C)[nH]c2c1 [Example 38, hydrochloride]', 'inhibition at 2 µM', '%', 106),
  ('CN1CC[C@@H](NC(=O)c2ccc3c(c2Cl)OCCO3)C[C@@H]1c1nc2ccccc2[nH]1', 'inhibition at 2 µM', '%', 108);
